Data origin: paper PMC4369446

measuredOn: T1, Monocarboxylate transporter 8 peptide on HLA-A*02:01 (human)
T1 peptide: AVAFIGLHTS
assayText: cytokine release
measuredAttribute: binding result

[
  {
    "binder": "SIG35α / TRBV27 Cl.523 (TCR) alpha TRAV12-2 J35 CDR3: CAVSIGFGNVL beta TRBV27 TRBJ2-7 CDR3: CASGSYEQYF",
    "result": "no recognition"
  },
  {
    "binder": "SIG35α / TRBV27 Cl.1606 (TCR) alpha TRAV12-2 J35 CDR3: CAVSIGFGNVL beta TRBV27 TRBJ2-7 CDR3: CASSLLGSYEQYF",
    "result": "no recognition"
  },
  {
    "binder": "SIG35α / TRBV27 Cl.1593 (TCR) alpha TRAV12-2 J35 CDR3: CAVSIGFGNVL beta TRBV27 TRBJ1-5 CDR3: CASGNNQPQHF",
    "result": "no recognition"
  },
  {
    "binder": "SIG35α / TRBV27 Cl.1599 (TCR) alpha TRAV12-2 J35 CDR3: CAVSIGFGNVL beta TRBV27 TRBJ1-1 CDR3: CASSFLGAMAEAFF",
    "result": "no recognition"
  },
  {
    "binder": "SIG35α / TRBV27 Cl.758 (TCR) alpha TRAV12-2 J35 CDR3: CAVSIGFGNVL beta TRBV27 TRBJ2-2 CDR3: CASSPRLAGDGELFF",
    "result": "no recognition"
  },
  {
    "binder": "SIG35α / TRBV27 Cl.1574 (TCR) alpha TRAV12-2 J35 CDR3: CAVSIGFGNVL beta TRBV27 TRBJ1-1 CDR3: CASSPWERINTEAFF",
    "result": "no recognition"
  },
  {
    "binder": "SIG35α / TRBV27 Cl.413 (TCR) alpha TRAV12-2 J35 CDR3: CAVSIGFGNVL beta TRBV27 TRBJ1-4 CDR3: CASSVFGGDMGEKLFF",
    "result": "no recognition"
  }
]
